Measured values drawn from PubChem BioAssay AID1159580 for this set.

# TEST: chemical genetic growth profiling, strain panel (AID 1159580);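 also: tested at 20 µM; growth read once vehicle control cultures reached saturation at 30 °C; 1 = growth at the plate median or of vehicle wells; lower values mean less growth of the strain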
# CONDITIONS_USED: S. cerevisiae deletion strains, growth OD, locus YLR370C, strain arc18, active compounds read low
Out of some 5,500 compounds screened, about 2,000 (36%) were called active. Another 18% or so got no clear call; they are omitted. The list shows a part of the results.
READOUT_NAME: normalized growth

Worked cases, normalized growth given:
COMPOUND: CCC1(C2=NCCN2)Cc2ccccc2O1 (stereo not given)
READOUT_NAME: normalized growth
VALUE_OBSERVED: 1.01 (inactive)

COMPOUND: CN1CCN(C2=Nc3cc(Cl)ccc3Nc3ccccc32)CC1
READOUT_NAME: normalized growth
VALUE_OBSERVED: 0.984 (inactive)

COMPOUND: COc1cc(O)c2c(c1)C(=O)c1cc(C)cc(O)c1C2=O
READOUT_NAME: normalized growth
VALUE_OBSERVED: 0.986 (inactive)

COMPOUND: CCCCN(CC)c1c([N+](=O)[O-])cc(C(F)(F)F)cc1[N+](=O)[O-]
READOUT_NAME: normalized growth
VALUE_OBSERVED: 1.01 (inactive)

Give me normalized growth for each of these compounds, listed below.
1. CC(=O)c1c(O)cc(O)cc1O
2. CON

Response line:
1: 0.961 (inactive); 2: 1.04 (inactive)

Give me normalized growth for each of these compounds, listed below.
1. COc1cc2c(cc1OC)C(C)NCC2 (stereo not given)
2. O=C(O)CCC(=O)OC[C@@H](NC(=O)C(Cl)Cl)[C@H](O)c1ccc([N+](=O)[O-])cc1

Response line:
["0.955 (inactive)", "0.944 (inactive)"]

====

# TEST: chemical genetic growth profiling, strain panel (AID 1159580);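 also: tested at 20 µM; growth read once vehicle control cultures reached saturation at 30 °C; 1 = growth at the plate median or of vehicle wells; lower values mean less growth of the strain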
# CONDITIONS_USED: S. cerevisiae deletion strains, growth OD, locus YKL160W, strain elf1
Screen size: about 5,500 compounds; about 2,000 (36%) were called active. Another 18% or so got no clear call; they are omitted. No stated cut-off is given here; in the data, active means normalized growth mostly below about 0.91 (no sharp cut-off); inconclusive means no clear call, values can overlap the other calls; inactive means mostly above about 0.92. Some of the results follow.
Bench note: report the call from active, inactive

Prompt line: Per the assay record, what outcome was assigned to Oc1cccc2cccnc12 ?
Response line: active

Prompt line: Now the same for C/C(=C\CO)CC[C@H](C)CCC[C@H](C)CCCC(C)C
Response line: inactive

Prompt line: Now the same for CC(=O)OC1CCC2(O)CC1(C)CCC1C2CC1(C)C (stereo not drawn)
Response line: inactive

Prompt line: Now the same for ClC1C(Cl)C(Cl)C(Cl)C(Cl)C1Cl (stereo not drawn)
Response line: active

Prompt line: Now the same for CC(C)=CCC/C(C)=C/CO
Response line: inactive

Prompt line: Now the same for CC(NC(C)(C)C)C(=O)c1cccc(Cl)c1 (stereo not drawn)
Response line: inactive

Prompt line: Now the same for C=C(C)C1Cc2c(ccc3c(=O)c4c(oc23)COc2cc(OC)c(OC)cc2-4)O1 (stereo not drawn)
Response line: inactive

Prompt line: Now the same for CON
Response line: inactive

Prompt line: Now the same for CO/N=C(/C(=O)NC1C(=O)N2C(C(=O)OCOC(=O)C(C)(C)C)=C(/C=C\c3scnc3C)CSC12)c1csc(N)n1 (stereo not drawn)
Response line: inactive

====

# TEST: chemical genetic growth profiling, strain panel (AID 1159580);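 also: tested at 20 µM; growth read once vehicle control cultures reached saturation at 30 °C; 1 = growth at the plate median or of vehicle wells; lower values mean less growth of the strain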
# CONDITIONS_USED: S. cerevisiae deletion strains, growth OD, locus YGL253W, strain hxk2, active compounds read low
About 2,000 (36%) of roughly 5,500 compounds were called active. Not shown: some 18% with an inconclusive outcome. The list shows a part of the results.
Please respond with reported normalized growth for every item in the list.
Answers are plain numbers.

Worked cases, normalized growth given:
COMPOUND: Cn1c(=O)[nH]c2ncn(C)c2c1=O
normalized growth: 0.958

COMPOUND: CC(=O)OC1CCC2(O)CC1(C)CCC1C2CC1(C)C (stereo unspecified)
normalized growth: 1.07

COMPOUND: Cn1c(=O)[nH]c2nc[nH]c2c1=O
normalized growth: 1

COMPOUND: CC1=C(C(=O)O)N2C(=O)[C@@H](NC(=O)[C@@H](N)c3ccc(O)cc3)[C@H]2SC1
normalized growth: 1.02

COMPOUND: Cn1c(=O)c2c(ncn2C)n(C)c1=O
normalized growth: 0.982

Give me normalized growth for each of these compounds, listed below.
1. COc1cc(O)ccc1C(C)=O
2. Cc1cc(O)c2c(c1)C(=O)c1cccc(O)c1C2=O
3. CC(=O)O[C@@H]1C2CC[C@@H]3C1(C[C@@H](O)[C@@]1(O)[C@@H](C[C@H](O)C1(C)C)[C@]3(C)O)C[C@@]2(C)O (stereo partly specified)
4. O=C1C=CC(=O)c2c(O)cccc21

Response line:
1. 1.02
2. 0.985
3. 0.996
4. 0.979

Give me normalized growth for each of these compounds, listed below.
1. Cn1c(=O)c2c(ncn2CCO)n(C)c1=O
2. CC(=O)O[C@H]1CC2CCC3C(CC[C@@]4(C)C3C[C@H]([N+]3(C)CCCCC3)[C@@H]4OC(C)=O)[C@@]2(C)C[C@@H]1N1CCCCC1 (stereo partly specified)
3. COc1ccc(CC(=O)c2ccc(O)cc2O)cc1
4. O=C(CCc1ccc(O)cc1)c1c(O)cc(O)cc1O
5. O=C1c2cccc(O)c2C(=O)c2c(O)cccc21
6. CCC[C@@H]1C[C@@H](C(=O)N[C@H]([C@H]2O[C@H](SC)[C@H](O)[C@@H](O)[C@H]2O)[C@H](C)O)N(C)C1

Response line:
1. 1.02
2. 1.01
3. 0.982
4. 1.02
5. 0.79
6. 0.992
